target: T1, recombinant c-Met extracellular domain (human, UniProt P08581 16-932); experiment: SPR kinetic analysis as in Example 2
T1 construct: Construct used for SPR is not described further (may be the Fc chimera, as the protocol captures on anti-human Fc)
Collected Kd values appear next to each entry.
State the result as a value with its unit after it.

P114AR7P92-F6 (designed binder, not shown: small tags and cut ends) LPAPKNLVVSRVTEDSARLSWTAPDAAFDSFWIRYFEFLGSGEAIVLTVPGSERSYDLTGLKPGTEYVVNILGVKGGGLSVPLSAIFTT
3.1 nM
P114AR7P95-G7 (designed binder, not shown: small tags and cut ends) LPAPKNLVVSRVTEDSARLSWTAPDAAFDSFWIRYFELLSTGEAIVLTVPGSERSYDLTGLKPGTEYVVNIMGVKGGSISPPLSAIFTT
20 nM
P114AR5P74-A5 (designed binder, not shown: small tags and cut ends) LPAPKNLVVSRVTEDSARLSWTAPDAAFDSFWIRYDEVVVGGEAIVLTVPGSERSYDLTGLKPGTEYYVNILGVKGGSISVPLSAIFTT
10.1 nM

Query: Give me measured Kd, please, for this binder: P114AR7P94-A3 (designed binder, not shown: small tags and cut ends) LPAPKNLVVSRVTEDSARLSWTAPDAAFDSFWIRYFEFLGSGEAIVLTVPGSERSYDLTGLKPGTEYVVNIMGVKGGKISPPLSAIFTT
Result: 0.4 nM

Query: Give me measured Kd, please, for this binder: P114AR7P95-F10 (designed binder, not shown: small tags and cut ends) LPAPKNLVVSRVTEDSARLSWTAPDAAFDSFWIRYFEFTTAGEAIVLTVPGSERSYDLTGLKPGTEYVVNIMGVKGGSISPPLSAIFTT
Result: 4.2 nM

Query: Give me measured Kd, please, for this binder: P114AR7P93-G8 (designed binder, not shown: small tags and cut ends) LPAPKNLVVSRVTEDSARLSWTAPDAAFDSFWIRYFEFLGSGEAIVLTVPGSERSYDLTDLKPGTEYGVTINGVKGGRVSTPLSAIFTT
Result: 6.9 nM

Query: Give me measured Kd, please, for this binder: P114AR7P95-D4 (designed binder, not shown: small tags and cut ends) LPAPKNLVVSRVTEDSARLSWTAPDAAFDSFWIRYFEFLGSGEAIVLTVPGSERSYDLTGLKPGTEYVVQILGVKGGYISIPLSAIFTT
Result: 0.4 nM
